assay: Inhibition of BMPR1-mediated Smad-1 phosphorylation in BMP4-stimulated mouse PASMC treated 30 mins before BMP4 challenge measured after 30 mins by immunoblot analysis
READOUT_NAME: pIC50
For clarity, pIC50 is expressed as the negative log10 of concentration in mol/L.

// c1cc(-c2cnn3cc(-c4ccc(OCCN5CCCCC5)cc4)cnc23)ccn1 : pIC50 value = 6.33
